Test system: CAKI-1 renal
PROTOCOL_TEXT: NCI-60 one-dose screen, 48 h
CONDITION_LABEL: 10 µM unless noted
About 83,000 compounds went through this panel and 20% of them were active in at least one assay; those are over-represented in the sample as a whole. Activity calls are given as the source filed them. The calls were made as follows: active = growth percent below 10; inactive = the rest.
Outcome (select one): class 1 (active), class 0 (inactive)

Request: Called result for C=C(c1ccc(C(=O)O)c(F)c1)c1cc2c(cc1C)C(C)(C)CCC2(C)C
Result: class 0

Request: Called result for CN(C)CCC(CCN(C)C)(C(=O)O)c1ccccc1
Result: class 0

Request: Called result for C=CC(=O)Nc1cccc(Oc2nccc(Nc3nnc(-c4ccc(Br)cc4)s3)n2)c1
Result: class 0

Request: Called result for COc1ccc(OC)c(Nc2nnc(-c3cc(OC)c(OC)c(OC)c3)o2)c1
Result: class 0

Request: Called result for C#CCOc1cccc(Nc2ncnc3cc(NC(=O)CCl)ccc23)c1
Result: class 1

Request: Called result for O=[N+]([O-])c1c(O)c(Cl)cc(Cl)c1Cl
Result: class 0

Request: Called result for O=c1cc(CP(=O)(O)O)c2cc(O)c(-c3ccccc3)cc2o1
Result: class 0

Request: Called result for CNC(=O)c1cc(Oc2ccc3c(c2)sc2nc(-c4ccc(NC(=O)[C@@H](NC(=O)OC)C(C)C)cc4)cn23)ccn1
Result: class 0

Request: Called result for C[C@H]1[C@H](C)CC[C@]2(C(=O)NCCNCCN)CC[C@]3(C)C(=CC[C@@H]4[C@@]5(C)CCC(=O)C(C)(C)[C@@H]5CC[C@]43C)[C@H]12
Result: class 0

Request: Called result for CN1CCOCCN(C)Cc2ccc3ccc(cc3c2)CN(C)CCOCCN(C)Cc2ccc3ccc(cc3c2)C1
Result: class 0

Request: Called result for CN1c2ccccc2S(=O)(=O)n2c(SCC(=O)Nc3nc4ccc(F)cc4s3)nnc21
Result: class 0

Request: Called result for N#Cc1nn(-c2cc(=O)[nH]c3ccc(Br)cc23)c(N)c1C#N
Result: class 0

Request: Called result for CN(C)CCCNC(=O)c1cncnc1Nc1ccc2c(ccn2Cc2cccc(F)c2)c1
Result: class 0

Request: Called result for COC(=O)c1ccc2c(c1)c1c(C)c3cnccc3c(C)c1n2C
Result: class 1

Request: Called result for Clc1ccc(-c2cc(-c3ccccc3)nc(N3CCN(CCCNc4ccnc5cc(Cl)ccc45)CC3)n2)cc1
Result: class 1

Request: Called result for CCCCCc1ccc(S(=O)(=O)Nc2cc(-c3csc(NC(C)=O)n3)ccc2N2CCN(C)CC2)cc1
Result: class 0
